- EXPERIMENT NOTES: Cmax in rat at 10 mg/kg, po
- Format: ADME, organism-based
- Parameters: dose 10 mg/kg, route oral
- PARTICULARS: in vivo
REPORTED METRIC: Cmax (ng/mL)
Please state the figure in ng/mL; there is no need to write the unit.

Dear colleague, I am looking for the recorded Cmax of the following molecule: CCCCc1nc(C)c(CC(=S)N(C)C)c(=O)n1Cc1ccc(-c2ccccc2-c2nnn[nH]2)cc1 [FIMASARTAN]
518

* * *

- EXPERIMENT NOTES: Cmax in mouse at 60 mg/kg, po
- Format: ADME, organism-based
- Parameters: dose 60 mg/kg, route oral
- PARTICULARS: in vivo
REPORTED METRIC: Cmax (ng/mL)
Please state the figure in ng/mL; there is no need to write the unit.

Dear colleague, I am looking for the recorded Cmax of the following compound: CCCCc1nc(C(C)C)c(CC(=S)N2CCCC2)c(=O)n1Cc1ccc(-c2ccccc2-c2noc(=O)[nH]2)cc1
1860

* * *

- SYSTEM: CYP2C19 (Homo sapiens, UniProt P33261)
- Sequence (P33261 whole entry): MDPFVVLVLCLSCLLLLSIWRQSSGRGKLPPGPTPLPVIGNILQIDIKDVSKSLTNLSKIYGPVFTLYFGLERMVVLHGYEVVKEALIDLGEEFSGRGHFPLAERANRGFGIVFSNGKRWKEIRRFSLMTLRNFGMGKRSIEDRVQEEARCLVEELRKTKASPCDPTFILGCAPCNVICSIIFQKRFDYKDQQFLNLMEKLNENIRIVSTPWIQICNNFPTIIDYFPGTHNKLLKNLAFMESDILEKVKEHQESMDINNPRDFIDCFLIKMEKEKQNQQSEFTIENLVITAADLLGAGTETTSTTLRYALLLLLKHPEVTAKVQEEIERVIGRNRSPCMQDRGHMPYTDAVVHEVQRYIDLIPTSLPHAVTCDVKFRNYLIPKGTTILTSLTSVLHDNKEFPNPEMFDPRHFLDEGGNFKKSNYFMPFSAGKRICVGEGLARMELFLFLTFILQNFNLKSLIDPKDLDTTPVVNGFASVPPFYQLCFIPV
- EXPERIMENT NOTES: Inhibition of CYP2C19 (unknown origin) assessed as remaining activity at 10 uM
- Assay type: ADME
- PARTICULARS: read-out: Activity
REPORTED METRIC: activity at 10 µM (%)
Please state the figure in %; there is no need to write the unit.

Dear colleague, I am looking for the recorded activity at 10 µM of the following compound: CCCCc1nc(C(C)C)c(CC(=S)N2CCCC2)c(=O)n1Cc1ccc(-c2ccccc2-c2noc(=O)[nH]2)cc1
84

* * *

- EXPERIMENT NOTES: Stability in dog liver microsomes assessed as compound remaining after 30 mins
- Assay type: ADME, Canis lupus familiaris, microsome
- PARTICULARS: read-out: Stability
REPORTED METRIC: remaining at 0.5 h

Dear colleague, I am looking for the recorded remaining at 0.5 h of the following molecule: CCCCc1nc(C(C)C)c(CC(=S)N2CCCC2)c(=O)n1Cc1ccc(-c2ccccc2-c2noc(=O)[nH]2)cc1
62%

* * *

- SYSTEM: Type-1 angiotensin II receptor (Homo sapiens)
- EXPERIMENT NOTES: Antagonist activity at type-1 angiotensin 2 receptor (unknown origin) at 20 nM by calcium mobilizing assay relative to fimasartan
- Type: functional
The following compounds are listed with their measured inhibition values.
Please state the figure in %; there is no need to write the unit.

Dear colleague, I am looking for the recorded inhibition of the following compound: CCCCc1nc(C)c(CC(=S)N(C)C)c(=O)n1Cc1ccc(-c2ccccc2C(=O)O)cc1
80

Try this compound too: CCCCc1nc(C)c(CC(=S)N(C)C(C)C)c(=O)n1Cc1ccc(-c2ccccc2-c2noc(=O)[nH]2)cc1
107

Continuing:
Dear colleague, I am looking for the recorded inhibition of the following compound: Cc1nc(CC(C)C)n(Cc2ccc(-c3ccccc3-c3noc(=O)[nH]3)cc2)c(=O)c1CC(=S)N(C)C
0

Try this compound too: Cc1nc(C2CC2)n(Cc2ccc(-c3ccccc3-c3noc(=O)[nH]3)cc2)c(=O)c1CC(=S)N(C)C
9.5

Try this compound too: CCCCc1nc(C2CC2)c(CC(=S)N2CCCC2)c(=O)n1Cc1ccc(-c2ccccc2-c2noc(=O)[nH]2)cc1
63

Try this compound too: CCCCc1nc(C)c(CC(=S)N(C)C)c(=O)n1Cc1ccc(-c2ccccc2S(N)(=O)=O)cc1
11

* * *

- EXPERIMENT NOTES: Stability in rat liver microsomes assessed as compound remaining after 30 mins
- Type: ADME, microsome
- PARTICULARS: read-out: Stability
REPORTED METRIC: remaining at 0.5 h (%)
Please state the figure in %; there is no need to write the unit.

Dear colleague, I am looking for the recorded remaining at 0.5 h of the following molecule: CCCCc1nc(C(C)C)c(CC(=S)N2CCCC2)c(=O)n1Cc1ccc(-c2ccccc2-c2noc(=O)[nH]2)cc1
24

* * *

- SYSTEM: CYP3A4 (Homo sapiens)
- Sequence (P08684 whole entry): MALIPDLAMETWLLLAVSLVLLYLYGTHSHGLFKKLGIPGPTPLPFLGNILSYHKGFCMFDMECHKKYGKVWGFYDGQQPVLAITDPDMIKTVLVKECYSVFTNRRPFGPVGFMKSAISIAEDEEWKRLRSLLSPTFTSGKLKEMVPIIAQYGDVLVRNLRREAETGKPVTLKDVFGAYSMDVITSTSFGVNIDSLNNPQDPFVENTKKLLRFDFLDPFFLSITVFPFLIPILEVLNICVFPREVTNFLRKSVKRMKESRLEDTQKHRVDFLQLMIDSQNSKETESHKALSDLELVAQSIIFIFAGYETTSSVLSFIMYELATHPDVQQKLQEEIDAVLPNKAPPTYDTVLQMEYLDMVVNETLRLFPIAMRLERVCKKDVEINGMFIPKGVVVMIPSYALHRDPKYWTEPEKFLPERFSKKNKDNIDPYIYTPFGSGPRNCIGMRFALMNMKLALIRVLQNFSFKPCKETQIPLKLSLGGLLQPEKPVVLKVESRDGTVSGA
- EXPERIMENT NOTES: Inhibition of CYP3A4 (unknown origin) assessed as remaining activity at 10 uM
- Format: ADME
- PARTICULARS: read-out: Activity
REPORTED METRIC: activity at 10 µM
Write the numeric value and follow it with the unit.

// lookup activity at 10 µM | system=CYP3A4 (Homo sapiens) | key= CCCCc1nc(C(C)C)c(CC(=S)N2CCCC2)c(=O)n1Cc1ccc(-c2ccccc2-c2noc(=O)[nH]2)cc1
62%

* * *

- EXPERIMENT NOTES: Tmax in rat at 10 mg/kg, po
- Assay type: ADME, organism-based
- PARTICULARS: in vivo
REPORTED METRIC: Tmax
Write the numeric value and follow it with the unit.

Dear colleague, I am looking for the recorded Tmax of the following molecule: CCCCc1nc(C)c(CC(=S)N(C)C)c(=O)n1Cc1ccc(-c2ccccc2-c2nnn[nH]2)cc1
7.8 min

* * *

- EXPERIMENT NOTES: Tmax in rat at 60 mg/kg, po
- Type: ADME, organism-based
- PARTICULARS: in vivo
REPORTED METRIC: Tmax (h)
Please state the figure in h; there is no need to write the unit.

Dear colleague, I am looking for the recorded Tmax of the following compound: CCCCc1nc(C(C)C)c(CC(=S)N2CCCC2)c(=O)n1Cc1ccc(-c2ccccc2-c2noc(=O)[nH]2)cc1
1.17
